Each entry below lists one item and its recorded TGI value.
- System: NCI-H460 lung
- procedure summary: NCI tumour cell line growth inhibition, 48 h

CCOC1C=CC(=O)C(CO)O1 (stereo unspecified) ... 30.9 µM
O=C1C=CC2(O[C@H](c3ccccc3)[C@@H](c3ccccc3)O2)[C@H](Sc2ccccc2O)C1 ... 8.95 µM
O=[N+]([O-])c1cccc(C2=NN(c3ccccc3)C3c4cc(Br)ccc4OCC23)c1 (stereo unspecified) ... > 100 µM
Cc1nnc2n(c1=O)CCCN2C ... > 100 µM
CNCc1cccc2c1OCCOCCOCCN(C)S(=O)(=O)c1ccc(cc1)-c1cnc(N)c(n1)C(=O)N2 ... 2.95 µM

The recorded TGI for entry `NCCN1CCCCCc2ccccc21` equals > 10 µM

The recorded TGI for entry `CCOC(=O)c1nc(C)oc1C(F)(F)F` equals > 100 µM

The recorded TGI for entry `CCn1cc(C(=O)O)c(=O)c2cc(F)c(N3CCN(S(=O)(=O)c4cccc5ccccc45)CC3)cc21` equals > 100 µM

The recorded TGI for entry Cc1ccc2c(c1C)C(=O)C1(Cc3cc4c(cc3C1=O)CCC4)C2 (stereo unspecified) equals > 100 µM

The recorded TGI for entry `COc1ccc2nc(NC(=O)/C(C#N)=C/c3ccccc3)sc2c1` equals > 100 µM

The recorded TGI for entry `OCc1cn(Cc2ccccc2)c2ccccc12` equals 35.8 µM

* * *

Each entry below lists one item and its recorded TGI value.
- System: HOP-92 NSCLC
- procedure summary: NCI tumour cell line growth inhibition, 48 h

Use these answered entries as a reference point.
N#CC1c2ccccc2C=CN1C(=O)CCCl (stereo not given) ... 3.76 µM
CCCCCCCCCCCCCCCCCCOc1ccccc1CC(=O)NCC[N+]1(C)CCOCC1 ... 3.78 µM
O=C(NCc1ccccc1)c1cc2ccccc2oc1=Nc1cccc(C(F)(F)F)c1 ... > 100 µM
CCOC1C=CC(=O)C(CO)O1 (stereo not given) ... 8.29 µM
OCc1cc2c(cn1)[nH]c1ccc(NCc3ccccc3)cc12 ... 57.3 µM
COC(=O)[C@]1(C)CCC[C@@]2(C)C1CC[C@]13C=C(C(C)C)[C@H](CC21)CC3(Cl)C#N (stereo not given in full) ... > 100 µM

The recorded TGI for entry `c1ccc2c(c1)SCCCS2` equals > 100 µM

The recorded TGI for entry COC(=O)OC1C(O[C@H]2C[C@H]3[C@@H]4CC=C5C[C@@H](O)CC[C@]5(C)[C@H]4CC[C@]3(C)[C@H]2[C@H](C)C(=O)CCC(C)C)OCC(O)C1OC1OCC(O)C(O)C1OC(=O)c1ccc(OC)cc1 (stereo not given in full) equals 1.87 µM

The recorded TGI for entry `CCOC(=O)c1nc(C)oc1C(F)(F)F` equals > 100 µM

The recorded TGI for entry O=C(/C=C/C12c3ccccc3C(c3ccccc31)C1C(=O)NC(=O)C12)c1ccccn1 (stereo not given) equals 4.54 µM

* * *

- System: NCI-H522 lung
- procedure summary: NCI tumour cell line growth inhibition, 48 h
Each entry below lists one item and its recorded GI50 value.

COc1cc2c(cc1Nc1nc(N3CCc4ccccc43)c3cc[nH]c3n1)N(C(=O)CN(C)C)CC2 ... 3.94 µM
Cn1c([N+](=O)[O-])cnc1C=C1C(=O)c2ccccc2C1=O ... 1.89 µM
CC1(C)OC[C@@H]([C@@]2(CO[Si](c3ccccc3)(c3ccccc3)C(C)(C)C)CC=CC(=O)O2)O1 ... 5.02 µM
O=C(NCCNCCO)c1ccc2c(c1)oc1cc3ccccc3c(=O)n12 ... 18.2 µM

The recorded GI50 for entry `CCCCCCCCCCCCCCCCCCOc1ccccc1CC(=O)NCC[N+]1(C)CCOCC1` equals 1.95 µM

* * *

- Test system: OVCAR-3 ovarian
- procedure summary: NCI tumour cell line growth inhibition, 48 h
endpoint name: TGI (µM)
Write the number in µM without appending the unit.

Use these answered entries as a reference point.
COc1ccc2c(N)ncc(C#Cc3cc(C(=O)Nc4ccc(CN5CCN(C)CC5)c(C(F)(F)F)c4)cnc3C)c2c1 ... 5.29
COC(=O)OC1C(O[C@H]2C[C@H]3[C@@H]4CC=C5C[C@@H](O)CC[C@]5(C)[C@H]4CC[C@]3(C)[C@H]2[C@H](C)C(=O)CCC(C)C)OCC(O)C1OC1OCC(O)C(O)C1OC(=O)c1ccc(OC)cc1 (some centres not stated) ... 16.8
CCOC1C=CC(=O)C(CO)O1 (configuration not stated) ... 19.1

The recorded TGI for entry `O=C(CCc1cc(O)cc(O)c1)NCCc1cc(OCc2ccccc2)cc(OCc2ccccc2)c1` equals 52.2

* * *

Each entry below lists one item and its recorded GI50 value.
- Tested on: MOLT-4 leukemia
- procedure summary: NCI tumour cell line growth inhibition, 48 h

CCN=c1sc2c(n1NC(=O)c1cc3ccc1CCc1ccc(cc1)CC3)C(=O)c1ccccc1C2=O ... 0.634 µM
COc1cc(CNc2nc3cc(N)cc(N)c3nc2-c2ccccc2)cc(OC)c1 ... 3.02 µM
O=C1NC(=N[C@@H](CO)c2ccccc2)S/C1=C\c1ccc2ncccc2c1 ... 9.19 µM
COc1ccc(OC)c(/C=C/c2nc(=S)n(-c3ccc(Cl)cc3)[nH]2)c1 ... 7.74 µM

Okay, now this compound:
Considering `Cn1nccc1Nc1nccc(-c2ccn([C@H](CO)c3ccc(Cl)c(F)c3)c(=O)c2)n1` , its GI50 with MOLT-4 leukemia was recorded as 24.4 µM

* * *

- System: NCI/ADR-RES ovarian
- procedure summary: NCI tumour cell line growth inhibition, 48 h
Think of 30 µM as a floor: if TGI stands on it or above, it is yes (1); beneath it, no (0).

Check out these entries, answers already filled in.
O=C(/C=C/C12c3ccccc3C(c3ccccc31)C1C(=O)NC(=O)C12)c1ccccn1 (stereo unspecified) ... no (0)
CC(=O)Nc1nc(Cl)cc(NCC2(CO)CCC2)n1 ... yes (1)
CCCCCCCCCCCCCCCCCCOc1ccccc1CC(=O)NCC[N+]1(C)CCOCC1 ... yes (1)
CC1(C)CC(=O)C2=C(C1)C(c1ccccc1Cl)C1C(=O)CC(C)(C)CC1(O)O2 (stereo unspecified) ... yes (1)
O=c1oc2ccc3ccccc3c2cc1-c1cn2ccsc2n1 ... yes (1)

Problem: Textbook exercise: given the entry COC(=O)c1ccccc1C1CN=NC12Cc1c(ccc(C)c1C)C2=O (stereo unspecified) , state whether its TGI is greater than or equal to 30 µM.
Solution: yes (1)

Problem: Textbook exercise: given the entry Nc1ncnc2c1nnn2C1C=CC(CP(=O)(O)O)C1 (stereo unspecified) , state whether its TGI is greater than or equal to 30 µM.
Solution: yes (1)

Problem: Textbook exercise: given the entry OCc1ccc2c(c1)CC1(C2)Cc2cc3c(cc2C1O)CCC3 (stereo unspecified) , state whether its TGI is greater than or equal to 30 µM.
Solution: no (0)

Problem: Textbook exercise: given the entry COC(=O)[C@]1(C)CCC[C@@]2(C)C1CC[C@]13C=C(C(C)C)[C@H](CC21)CC3(Cl)C#N (stereo partly specified) , state whether its TGI is greater than or equal to 30 µM.
Solution: yes (1)

* * *

- Test system: KM12 colon
- procedure summary: NCI tumour cell line growth inhibition, 48 h; in the data active means GI50 below about 0.43 µM; inactive means the rest
Returns: one label drawn from active, inactive

Check out these entries, answers already filled in.
OC1(c2ccc(Cl)c(C(F)(F)F)c2)CCN(CCCC(c2ccc(F)cc2)c2ccc(F)cc2)CC1 ... inactive
Cc1ccc(O)cc1Nc1ccnc2ccc(S(C)(=O)=O)cc12 ... inactive
c1ccc(-c2c(-c3ccccc3)[n+](Cc3ccc4ccccc4c3)c(-c3ccc(-c4nc5ccccc5s4)cc3)n2Cc2ccc3ccccc3c2)cc1 ... active
CCn1cc(C(=O)O)c(=O)c2cc(F)c(N3CCN(S(=O)(=O)c4cccc5ccccc45)CC3)cc21 ... inactive
CC(=O)O[C@H]1C(=O)[C@@]2(C)C([C@H](OC(=O)c3ccccc3)[C@]3(O)C[C@H](OC(=O)[C@H](O)[C@@H](NC(=O)c4ccccc4)c4ccccc4)C(C)=C1C3(C)C)[C@]1(OC(C)=O)CO[C@@H]1C[C@@H]2O (some centres not stated) ... active
CCN(CC)Cc1cc(Nc2nc(NC3CCC(N(C)C)CC3)c3ccccc3n2)ccc1OC (configuration not stated) ... inactive

Now consider the entry below.
Problem: # outcome recorded in this test, key = `O=C(NCCNCCO)c1ccc2c(c1)oc1cc3ccccc3c(=O)n12`
Solution: inactive

* * *

Each entry below lists one item and its recorded GI50 value.
- Tested on: HCC-2998 colon
- procedure summary: NCI tumour cell line growth inhibition, 48 h

The recorded GI50 for entry `Cn1nccc1Nc1nccc(-c2ccn([C@H](CO)c3ccc(Cl)c(F)c3)c(=O)c2)n1` equals 0.588 µM

The recorded GI50 for entry Nc1ncnc2c1N=C(c1ccc3c(c1)OCO3)CC(c1ccc(Cl)cc1)N2 (stereo not drawn) equals 5.88 µM

The recorded GI50 for entry `CC(C)(CO)CNC(=O)c1ccc2[nH]c(O)c(N=Nc3ccc(S(N)(=O)=O)cc3)c2c1` equals > 25 µM

The recorded GI50 for entry `O=C1c2cccc(Oc3ccccc3)c2C(=O)c2cccc(Oc3ccccc3)c21` equals > 100 µM

The recorded GI50 for entry `FC(F)(F)Oc1cccc(-c2cc(NCCCCCCNc3cc(-c4cccc(OC(F)(F)F)c4)nc4ccc(N5CCCC5)cc34)c3cc(N4CCCC4)ccc3n2)c1` equals 1.74 µM
